Ref: ChEMBL document CHEMBL1932960

# PROTOCOL: Oral bioavailability in Beagle dog at 2 mg/kg
# Assay type: ADME, organism-based, Canis lupus familiaris
# CONDITION: in vivo
ASSAY ENDPOINT: bioavailability (%)
Field: numeric (%). Do not append units.

Request the reported bioavailability associated with CC(=O)N[C@@H]1CC2(CCN(Cc3ccc4c(c3)c3ccccc3n4C(N)=O)CC2)c2ccccc21
73

====

# STUDY SYSTEM: Melanin-concentrating hormone receptor 2 (Homo sapiens, UniProt Q969V1)
# Sequence (Q969V1 whole entry): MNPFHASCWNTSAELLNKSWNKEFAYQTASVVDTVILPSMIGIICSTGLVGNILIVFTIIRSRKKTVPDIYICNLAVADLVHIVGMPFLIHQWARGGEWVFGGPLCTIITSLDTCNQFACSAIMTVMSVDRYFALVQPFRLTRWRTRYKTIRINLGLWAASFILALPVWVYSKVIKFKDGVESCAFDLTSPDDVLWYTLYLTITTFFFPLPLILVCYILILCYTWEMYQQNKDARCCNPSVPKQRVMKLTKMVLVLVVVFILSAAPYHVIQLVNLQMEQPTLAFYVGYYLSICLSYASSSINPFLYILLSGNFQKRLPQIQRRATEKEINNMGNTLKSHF
# PROTOCOL: Antagonist activity at human MCHR2 receptor expressed in CHO cells assessed as inhibition of MCH-stimulated Ca2+ flux preincubated for 10 mins prior to MCH-stimulation by FLIPR assay
pIC50: −log10 of the molar value.
Mark FALSE for pIC50 values under 8, and TRUE for everything at or above.

Below are worked cases with known answers.
COMPOUND	STUDY SYSTEM	CATEGORY LABEL
CCn1c2ccccc2c2cc(CN3CCC4(CC3)c3ccccc3CC4NC(C)=O)ccc21 (racemic)	Melanin-concentrating hormone receptor 2 (Homo sapiens, UniProt Q969V1)	FALSE
CCn1c2ccccc2c2cc(CN3CCC4(CC3)c3ccccc3[C@H](NC(C)=O)[C@H]4O)ccc21 (racemic)	Melanin-concentrating hormone receptor 2 (Homo sapiens, UniProt Q969V1)	FALSE
CCC(=O)n1c2ccccc2c2cc(CN3CCC4(C=Cc5ccccc54)CC3)ccc21	Melanin-concentrating hormone receptor 2 (Homo sapiens, UniProt Q969V1)	FALSE
CC(=O)N[C@@H]1CC2(CCN(Cc3ccc4c(c3)c3ccccc3n4C(N)=O)CC2)c2ccccc21	Melanin-concentrating hormone receptor 2 (Homo sapiens, UniProt Q969V1)	TRUE

# check: pIC50 of CCn1c2ccccc2c2cc(CN3CCC4(CC3)c3ccccc3[C@H](O)[C@H]4O)ccc21 (racemic) is greater than or equal to 8
FALSE

# check: pIC50 of O[C@H]1Cc2ccccc2C12CCN(Cc1ccc3[nH]c4ccccc4c3c1)CC2 is greater than or equal to 8
FALSE

# check: pIC50 of CCn1c2ccccc2c2cc(C(=O)N3CCC4(C=Cc5ccccc54)CC3)ccc21 is greater than or equal to 8
FALSE

====

# STUDY SYSTEM: UniProt:Q969V1
ASSAY ENDPOINT: pKi
The meaning of pKi here: minus log10 of the concentration in molar units.

Report pKi for CC(=O)N[C@@H]1CC2(CCN(Cc3ccc4c(c3)c3ccccc3n4C(N)=O)CC2)c2ccccc21 tested on UniProt:Q969V1.
7.89

====

# PROTOCOL: Clearance in Beagle dog
# Assay type: ADME, organism-based, Canis lupus familiaris
# CONDITION: in vivo
ASSAY ENDPOINT: clearance (mL/min/kg)
Field: numeric (mL/min/kg). Do not append units.

Request the reported clearance associated with CC(=O)N[C@@H]1CC2(CCN(Cc3ccc4c(c3)c3ccccc3n4C(N)=O)CC2)c2ccccc21
10

====

# STUDY SYSTEM: Melanin-concentrating hormone receptor 1 (Homo sapiens)
# Sequence (Q99705 whole entry): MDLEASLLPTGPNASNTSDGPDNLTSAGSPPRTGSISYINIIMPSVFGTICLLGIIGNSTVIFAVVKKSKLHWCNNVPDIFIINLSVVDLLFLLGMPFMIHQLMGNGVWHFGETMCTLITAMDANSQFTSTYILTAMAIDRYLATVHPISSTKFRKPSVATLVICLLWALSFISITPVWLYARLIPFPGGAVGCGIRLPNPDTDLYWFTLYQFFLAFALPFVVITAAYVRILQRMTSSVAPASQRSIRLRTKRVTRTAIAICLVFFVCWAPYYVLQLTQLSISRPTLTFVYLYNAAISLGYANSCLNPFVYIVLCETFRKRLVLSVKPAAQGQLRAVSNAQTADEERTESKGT
# PROTOCOL: Antagonist activity at MCHR1 by FLIPR assay
ASSAY ENDPOINT: pIC50
The meaning of pIC50 here: minus log10 of the concentration in molar units.

Report pIC50 for CCn1c2ccccc2c2cc(CN3CCC4(C=Cc5ccccc54)CC3)ccc21 tested on Melanin-concentrating hormone receptor 1 (Homo sapiens).
4.70
